Target or system Cathepsin B (Homo sapiens); recorded quantity pKi.
pKi: −log10 of the molar value. Peptide text beside a SMILES is read from it. * marks the point of attachment. X4 = CC(C)C[C@H](NC(=O)[C@@H]1O[C@H]1C(=O)*)C(=O)N[C@@H](Cc1c[nH]c2ccccc12)C(=O)N[C@H](C(N)=O)[C@@H](C)O; X5 = CC(C)C[C@H](NC(=O)[C@H]1O[C@@H]1C(=O)*)C(=O)N[C@@H](Cc1c[nH]c2ccccc12)C(=O)N[C@H](C(N)=O)[C@@H](C)O; X3 = C[C@@H](O)[C@H](NC(=O)[C@@H]1CCCN1C(=O)[C@@H](NC(=O)[C@H]1O[C@@H]1C(=O)*)[C@@H](C)O)C(N)=O; X1 = CC(C)C[C@H](NC(=O)[C@H]1O[C@@H]1C(=O)*)C(=O)N1CCC[C@H]1C(=O)N[C@H](C(N)=O)[C@@H](C)O; X2 = CC(C)C[C@H](NC(=O)[C@@H]1O[C@H]1C(=O)*)C(=O)N1CCC[C@H]1C(=O)N[C@H](C(N)=O)[C@@H](C)O; X7 = CC(C)[C@H](NC(=O)[C@@H]1O[C@H]1C(=O)*)C(=O)N1CCC[C@H]1C(=O)N[C@H](C(N)=O)[C@@H](C)O

Form field pKi, entry CC(C)C[C@H](NC(=O)[C@H]1O[C@@H]1C(=O)N[C@@H](CO)C(=O)N1CCC[C@H]1C(=O)N1CCC[C@H]1C(=O)N1CCC[C@H]1C(=O)N[C@@H](CO)C(N)=O)C(=O)N1CCC[C@H]1C(=O)N[C@H](C(N)=O)[C@@H](C)O (X1-SPPPS-NH2) : < 4.30

Form field pKi, entry CC(C)C[C@H](NC(=O)[C@@H]1O[C@H]1C(=O)N[C@@H](CO)C(=O)N1CCC[C@H]1C(=O)N1CCC[C@H]1C(=O)N1CCC[C@H]1C(=O)N[C@@H](CO)C(N)=O)C(=O)N[C@@H](Cc1c[nH]c2ccccc12)C(=O)N[C@H](C(N)=O)[C@@H](C)O (X4-SPPPS-NH2) : 5.35

Form field pKi, entry CC(C)C[C@H](NC(=O)[C@H]1O[C@@H]1C(=O)N[C@@H](CO)C(=O)N1CCC[C@H]1C(=O)N1CCC[C@H]1C(=O)N1CCC[C@H]1C(=O)N[C@@H](CO)C(N)=O)C(=O)N[C@@H](Cc1c[nH]c2ccccc12)C(=O)N[C@H](C(N)=O)[C@@H](C)O (X5-SPPPS-NH2) : 5.30

Form field pKi, entry CC(C)[C@H](NC(=O)[C@@H]1O[C@H]1C(=O)N[C@@H](CO)C(=O)N1CCC[C@H]1C(=O)N1CCC[C@H]1C(=O)N1CCC[C@H]1C(=O)N[C@@H](CO)C(N)=O)C(=O)N1CCC[C@H]1C(=O)N[C@H](C(N)=O)[C@@H](C)O (X7-SPPPS-NH2) : < 4.00

Form field pKi, entry CC(C)C[C@H](NC(=O)[C@@H]1O[C@H]1C(=O)N[C@@H](CCCNC(=N)N)C(=O)N1CCC[C@H]1C(=O)N1CCC[C@H]1C(=O)N1CCC[C@H]1C(=O)N[C@@H](CO)C(N)=O)C(=O)N1CCC[C@H]1C(=O)N[C@H](C(N)=O)[C@@H](C)O (X2-RPPPS-NH2) : < 4.00

Form field pKi, entry CC(C)C[C@H](NC(=O)[C@H]1O[C@@H]1C(=O)N[C@H](C(=O)N1CCC[C@H]1C(=O)N1CCC[C@H]1C(=O)N1CCC[C@H]1C(=O)N[C@@H](CO)C(N)=O)[C@@H](C)O)C(=O)N1CCC[C@H]1C(=O)N[C@H](C(N)=O)[C@@H](C)O (X1-TPPPS-NH2) : 4.92

Form field pKi, entry C[C@@H](O)[C@H](NC(=O)[C@@H]1CCCN1C(=O)[C@@H](NC(=O)[C@H]1O[C@@H]1C(=O)N[C@@H](CO)C(=O)N1CCC[C@H]1C(=O)N1CCC[C@H]1C(=O)N1CCC[C@H]1C(=O)N[C@@H](CO)C(N)=O)[C@@H](C)O)C(N)=O (X3-SPPPS-NH2) : < 4.00

Form field pKi, entry CC(C)C[C@H](NC(=O)[C@@H]1O[C@H]1C(=O)N[C@@H](CO)C(=O)N[C@@H](CCC(N)=O)C(=O)N1CCC[C@H]1C(=O)N1CCC[C@H]1C(=O)N[C@@H](CO)C(N)=O)C(=O)N1CCC[C@H]1C(=O)N[C@H](C(N)=O)[C@@H](C)O (X2-SQPPS-NH2) : < 4.00
